- assay.name: Caco-2 permeability
- Type: in vitro ADME
- settings: human, Caco-2; read-out: EfR, efflux ratio (Caco-2)
readout.kind: efflux ratio
Answer field: number only, no words.

efflux ratio for CC(C)N1C(=O)COCc2ccc(-c3cccc(NS(C)(=O)=O)c3)cc21 [OXS007002] ? 1.3

---

- assay.name: Single dose PK study in male CD-1 mice
- Format: in vivo, mouse
- settings: mouse, whole blood, single dose 3 mg/kg po, blood, read-out: Vz/F
- Procedure: In order to undertake a preliminary assessment of the pharmacokinetic (PK) profile of this compound class, three compounds were deemed to have sufficient intrinsic potency, solubility and in vitro metabolic stability properties to progress into a single dose in vivo PK study. […] Male CD-1 mice were used for the PK studies, with three for each treatment. […] Blood concentration was measured by LC-MS/MS over 24 h.
readout.kind: Vd/F (L/kg)
Give the quantity in L/kg, number only.

Examples with answers:
# structure.smiles.string, Vd/F [L/kg]
rows = [
    ("CC(C)N1C(=O)COCc2ccc(-c3cccc(NS(C)(=O)=O)c3)cc21", 101),
    ("CS(=O)(=O)Nc1cccc(-c2ccc3c(c2)N(CC(F)(F)F)C(=O)COC3)c1", 73),
]

Proceed to the following item.
Vd/F for CS(=O)(=O)Nc1cccc(-c2ccc3c(c2)N(c2ccccc2)C(=O)COC3)c1 ? 100

---

- experimental.system: porcine neuronal tubulin (Sus scrofa, UniProt P02550+P02554)
- Construct: performed using porcine neuronal tubulin (Cytoskeleton, Inc, Denver, CO, USA, BK006P)
- Sequence (P02550 whole entry): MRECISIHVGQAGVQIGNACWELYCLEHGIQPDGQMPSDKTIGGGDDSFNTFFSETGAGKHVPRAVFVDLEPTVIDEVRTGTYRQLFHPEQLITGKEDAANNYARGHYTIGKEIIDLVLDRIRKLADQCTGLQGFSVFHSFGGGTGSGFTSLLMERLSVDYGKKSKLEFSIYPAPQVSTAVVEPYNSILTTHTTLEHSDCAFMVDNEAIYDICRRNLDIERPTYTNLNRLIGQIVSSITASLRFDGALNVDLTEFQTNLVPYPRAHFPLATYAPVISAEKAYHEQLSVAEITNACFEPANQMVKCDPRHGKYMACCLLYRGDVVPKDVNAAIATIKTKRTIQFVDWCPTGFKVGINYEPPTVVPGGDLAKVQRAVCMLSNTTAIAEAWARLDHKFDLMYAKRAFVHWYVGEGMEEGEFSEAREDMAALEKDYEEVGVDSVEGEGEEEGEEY
- Sequence (P02554 whole entry): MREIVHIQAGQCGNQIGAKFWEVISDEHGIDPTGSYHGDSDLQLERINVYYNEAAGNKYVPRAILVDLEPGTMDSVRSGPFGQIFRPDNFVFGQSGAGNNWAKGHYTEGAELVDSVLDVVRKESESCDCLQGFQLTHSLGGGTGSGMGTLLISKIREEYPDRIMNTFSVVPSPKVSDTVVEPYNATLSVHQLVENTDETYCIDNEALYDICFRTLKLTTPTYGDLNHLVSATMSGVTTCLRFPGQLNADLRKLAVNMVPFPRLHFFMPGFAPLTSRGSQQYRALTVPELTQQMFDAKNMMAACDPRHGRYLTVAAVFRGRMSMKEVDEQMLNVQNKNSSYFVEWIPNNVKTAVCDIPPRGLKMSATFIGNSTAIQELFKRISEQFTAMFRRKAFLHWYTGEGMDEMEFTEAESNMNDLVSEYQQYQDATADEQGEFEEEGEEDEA
- assay.name: Microtubule (tubulin) polymerisation cell-free assay
- settings: read-out: IC50, inhibition of tubulin polymerisation
readout.kind: pIC50
Remember the convention: pIC50 equals -log10 of concentration in molar.

pIC50 for CC(C)N1C(=O)COCc2ccc(-c3cccc(NS(C)(=O)=O)c3)cc21 ? 5.44

---

ER in mS9 (extraction ratio) by entry:
- assay.name: Metabolic stability in mouse S9 fraction
- Assay type: in vitro ADME
- settings: ER = Clint/species flow rate (mice: 90 mL/min/kg)
Answer field: number only, no words.

# structure.smiles.string, ER in mS9 (extraction ratio)
records = [
    ("CS(=O)(=O)Nc1cccc(-c2ccc3c(c2)N(CC2CC2)C(=O)OC3)c1", 0.54),
    ("CN1C(=O)COCc2ccc(-c3cccc(NS(C)(=O)=O)c3)cc21", 0.07),
    ("CC(C)N1C(=O)COCc2ncc(-c3cccc(NS(C)(=O)=O)c3)cc21", 0.09),
    ("CC(C)N1C(=O)COCc2ccc(-c3cccc(NS(C)(=O)=O)c3)cc21", 0.33),
]

ER in mS9 (extraction ratio) for COc1ccc(-c2ccc3c(c2)N(C(C)C)C(=O)COC3)cc1NS(C)(=O)=O ? 1

Then Cc1ccc(-c2ccc3c(c2)N(C(C)C)C(=O)COC3)cc1NS(C)(=O)=O ? 1
